Target: GST-Aq-NF-kB (Amphimedon queenslandica, UniProt A9Y5G7 2-389)
Sequence: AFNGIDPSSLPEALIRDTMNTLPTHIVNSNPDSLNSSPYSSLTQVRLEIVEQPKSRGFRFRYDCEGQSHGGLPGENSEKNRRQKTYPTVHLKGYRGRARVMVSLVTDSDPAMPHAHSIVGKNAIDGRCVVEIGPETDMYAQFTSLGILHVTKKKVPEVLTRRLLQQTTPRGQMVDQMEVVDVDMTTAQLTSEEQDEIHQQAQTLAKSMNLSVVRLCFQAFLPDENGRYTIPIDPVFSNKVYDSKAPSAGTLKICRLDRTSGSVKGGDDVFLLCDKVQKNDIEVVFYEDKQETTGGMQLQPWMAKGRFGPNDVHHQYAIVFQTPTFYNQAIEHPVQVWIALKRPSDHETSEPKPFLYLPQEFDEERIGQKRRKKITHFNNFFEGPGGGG
Assay: protein-binding microarray (PBM); PBM: ~300 nM protein, 6 mM HEPES pH 7.8, 80 mM KCl, 0.5 mM EDTA, 0.5 mM EGTA, 6% glycerol, 35 ng/ul poly-dIdC, 1% milk, 1 h, room temperature; Ap Aiptasia and Nv Nematostella (sea anemones) / Co Capsaspora / Aq Amphimedon (sponge) / Dm Drosophila / Hu human; RHD is the Rel homology domain; high values mean tight binding
Conditions: dsDNA, one strand shown
Classify on binding signal using group 1 = under 3 z-score, group 2 = from 3 z-score up to 5 z-score, group 3 = 5 z-score and over

>  <Sequence Content>
CCGATTAACATCAAGTAATTTCCTGATGTTAATCGGGTCTTGATTCGCTTGACGCTGCTG

>  <Measured Target>
GST-Aq-NF-kB (Amphimedon queenslandica, UniProt A9Y5G7 2-389)

>  <Answer Label>
group 1

$$$$
>  <Sequence Content>
CCGATTAACATCAACGTGGGGCGTGATGTTAATCGGGTCTTGATTCGCTTGACGCTGCTG

>  <Measured Target>
GST-Aq-NF-kB (Amphimedon queenslandica, UniProt A9Y5G7 2-389)

>  <Answer Label>
group 1

$$$$
>  <Sequence Content>
CCGATTAACATCAAAAAATTCCTTGATGTTAATCGGGTCTTGATTCGCTTGACGCTGCTG

>  <Measured Target>
GST-Aq-NF-kB (Amphimedon queenslandica, UniProt A9Y5G7 2-389)

>  <Answer Label>
group 1

$$$$
>  <Sequence Content>
CCGATTAACATCAGATTTTCCCATGATGTTAATCGGGTCTTGATTCGCTTGACGCTGCTG

>  <Measured Target>
GST-Aq-NF-kB (Amphimedon queenslandica, UniProt A9Y5G7 2-389)

>  <Answer Label>
group 2

$$$$
>  <Sequence Content>
CCGATTAACATCAGGATTTCCCCTGATGTTAATCGGGTCTTGATTCGCTTGACGCTGCTG

>  <Measured Target>
GST-Aq-NF-kB (Amphimedon queenslandica, UniProt A9Y5G7 2-389)

>  <Answer Label>
group 3

$$$$
>  <Sequence Content>
CCGATTAACATCAGGGGAATTTATGATGTTAATCGGGTCTTGATTCGCTTGACGCTGCTG

>  <Measured Target>
GST-Aq-NF-kB (Amphimedon queenslandica, UniProt A9Y5G7 2-389)

>  <Answer Label>
group 3

$$$$
>  <Sequence Content>
CCGATTAACATCAGATTTCTCCCTGATGTTAATCGGGTCTTGATTCGCTTGACGCTGCTG

>  <Measured Target>
GST-Aq-NF-kB (Amphimedon queenslandica, UniProt A9Y5G7 2-389)

>  <Answer Label>
group 2

$$$$
>  <Sequence Content>
CCGATTAACATCAATTTCCCACCTGATGTTAATCGGGTCTTGATTCGCTTGACGCTGCTG

>  <Measured Target>
GST-Aq-NF-kB (Amphimedon queenslandica, UniProt A9Y5G7 2-389)

>  <Answer Label>
group 1

$$$$
>  <Sequence Content>
CCGATTAACATCAGGCTTTTCCCTGATGTTAATCGGGTCTTGATTCGCTTGACGCTGCTG

>  <Measured Target>
GST-Aq-NF-kB (Amphimedon queenslandica, UniProt A9Y5G7 2-389)

>  <Answer Label>
group 3

$$$$
>  <Sequence Content>
CCGATTAACATCAAAAAAATACCTGATGTTAATCGGGTCTTGATTCGCTTGACGCTGCTG

>  <Measured Target>
GST-Aq-NF-kB (Amphimedon queenslandica, UniProt A9Y5G7 2-389)

>  <Answer Label>
group 2

$$$$
>  <Sequence Content>
CCGATTAACATCAGATAATTCCCTGATGTTAATCGGGTCTTGATTCGCTTGACGCTGCTG

>  <Measured Target>
GST-Aq-NF-kB (Amphimedon queenslandica, UniProt A9Y5G7 2-389)

>  <Answer Label>
group 3

$$$$
>  <Sequence Content>
CCGATTAACATCAAACTTCCCCCTGATGTTAATCGGGTCTTGATTCGCTTGACGCTGCTG

>  <Measured Target>
GST-Aq-NF-kB (Amphimedon queenslandica, UniProt A9Y5G7 2-389)

>  <Answer Label>
group 3

$$$$
>  <Sequence Content>
CCGATTAACATCACCCGCCCCCCTGATGTTAATCGGGTCTTGATTCGCTTGACGCTGCTG

>  <Measured Target>
GST-Aq-NF-kB (Amphimedon queenslandica, UniProt A9Y5G7 2-389)

>  <Answer Label>
group 2

$$$$
>  <Sequence Content>
CCGATTAACATCAAGGGGGAGGGTGATGTTAATCGGGTCTTGATTCGCTTGACGCTGCTG

>  <Measured Target>
GST-Aq-NF-kB (Amphimedon queenslandica, UniProt A9Y5G7 2-389)

>  <Answer Label>
group 2

$$$$
>  <Sequence Content>
CCGATTAACATCAGGGGGACAACTGATGTTAATCGGGTCTTGATTCGCTTGACGCTGCTG

>  <Measured Target>
GST-Aq-NF-kB (Amphimedon queenslandica, UniProt A9Y5G7 2-389)

>  <Answer Label>
group 2

$$$$
>  <Sequence Content>
CCGATTAACATCAAGGTATTCCCTGATGTTAATCGGGTCTTGATTCGCTTGACGCTGCTG

>  <Measured Target>
GST-Aq-NF-kB (Amphimedon queenslandica, UniProt A9Y5G7 2-389)

>  <Answer Label>
group 3

$$$$
>  <Sequence Content>
CCGATTAACATCAGGGGGCACCCTGATGTTAATCGGGTCTTGATTCGCTTGACGCTGCTG

>  <Measured Target>
GST-Aq-NF-kB (Amphimedon queenslandica, UniProt A9Y5G7 2-389)

>  <Answer Label>
group 3

$$$$
>  <Sequence Content>
CCGATTAACATCAAAATTCCCTGTGATGTTAATCGGGTCTTGATTCGCTTGACGCTGCTG

>  <Measured Target>
GST-Aq-NF-kB (Amphimedon queenslandica, UniProt A9Y5G7 2-389)

>  <Answer Label>
group 3

$$$$
>  <Sequence Content>
CCGATTAACATCAGACTTCCCCCTGATGTTAATCGGGTCTTGATTCGCTTGACGCTGCTG

>  <Measured Target>
GST-Aq-NF-kB (Amphimedon queenslandica, UniProt A9Y5G7 2-389)

>  <Answer Label>
group 3

$$$$
>  <Sequence Content>
CCGATTAACATCAGAAGTGGGAATGATGTTAATCGGGTCTTGATTCGCTTGACGCTGCTG

>  <Measured Target>
GST-Aq-NF-kB (Amphimedon queenslandica, UniProt A9Y5G7 2-389)

>  <Answer Label>
group 1

$$$$
>  <Sequence Content>
CCGATTAACATCACGGAAAATCCTGATGTTAATCGGGTCTTGATTCGCTTGACGCTGCTG

>  <Measured Target>
GST-Aq-NF-kB (Amphimedon queenslandica, UniProt A9Y5G7 2-389)

>  <Answer Label>
group 2

$$$$
>  <Sequence Content>
CCGATTAACATCATCCGGGAAAATGATGTTAATCGGGTCTTGATTCGCTTGACGCTGCTG

>  <Measured Target>
GST-Aq-NF-kB (Amphimedon queenslandica, UniProt A9Y5G7 2-389)

>  <Answer Label>
group 1

$$$$
>  <Sequence Content>
CCGATTAACATCACCCCCGCCCCTGATGTTAATCGGGTCTTGATTCGCTTGACGCTGCTG

>  <Measured Target>
GST-Aq-NF-kB (Amphimedon queenslandica, UniProt A9Y5G7 2-389)

>  <Answer Label>
group 2

$$$$
>  <Sequence Content>
CCGATTAACATCAGGGGTTCACCTGATGTTAATCGGGTCTTGATTCGCTTGACGCTGCTG

>  <Measured Target>
GST-Aq-NF-kB (Amphimedon queenslandica, UniProt A9Y5G7 2-389)

>  <Answer Label>
group 2

$$$$
>  <Sequence Content>
CCGATTAACATCAGGGACTCCCCTGATGTTAATCGGGTCTTGATTCGCTTGACGCTGCTG

>  <Measured Target>
GST-Aq-NF-kB (Amphimedon queenslandica, UniProt A9Y5G7 2-389)

>  <Answer Label>
group 3

$$$$
>  <Sequence Content>
CCGATTAACATCAATACTTCCCCTGATGTTAATCGGGTCTTGATTCGCTTGACGCTGCTG

>  <Measured Target>
GST-Aq-NF-kB (Amphimedon queenslandica, UniProt A9Y5G7 2-389)

>  <Answer Label>
group 3

$$$$
>  <Sequence Content>
CCGATTAACATCAATGGGTTTTCTGATGTTAATCGGGTCTTGATTCGCTTGACGCTGCTG

>  <Measured Target>
GST-Aq-NF-kB (Amphimedon queenslandica, UniProt A9Y5G7 2-389)

>  <Answer Label>
group 1

$$$$
>  <Sequence Content>
CCGATTAACATCAGGAATCCCTATGATGTTAATCGGGTCTTGATTCGCTTGACGCTGCTG

>  <Measured Target>
GST-Aq-NF-kB (Amphimedon queenslandica, UniProt A9Y5G7 2-389)

>  <Answer Label>
group 1

$$$$
>  <Sequence Content>
CCGATTAACATCACCGGGAATTCTGATGTTAATCGGGTCTTGATTCGCTTGACGCTGCTG

>  <Measured Target>
GST-Aq-NF-kB (Amphimedon queenslandica, UniProt A9Y5G7 2-389)

>  <Answer Label>
group 2

$$$$
>  <Sequence Content>
CCGATTAACATCACGGATTTTCCTGATGTTAATCGGGTCTTGATTCGCTTGACGCTGCTG

>  <Measured Target>
GST-Aq-NF-kB (Amphimedon queenslandica, UniProt A9Y5G7 2-389)

>  <Answer Label>
group 2

$$$$
>  <Sequence Content>
CCGATTAACATCAGGGGAAACCCTGATGTTAATCGGGTCTTGATTCGCTTGACGCTGCTG

>  <Measured Target>
GST-Aq-NF-kB (Amphimedon queenslandica, UniProt A9Y5G7 2-389)

>  <Answer Label>
group 3

$$$$
